The binders listed here are annotated with their pKd.
- target-or-system: MtrR W49F (Neisseria gonorrhoeae, UniProt P39897 1-210, W49F)
- method: fluorescence polarization; FP: 20 mM Tris-HCl pH 7.5, 100 mM NaCl, 2.5% glycerol, 1 mM TCEP, 1 ug BSA, 1 ug poly(dI-dC), 1 nM 5'-fluorescein DNA; temperature not stated; MtrR concentration as dimer
- test-parameters: protein: recombinant; tags: N-terminal His6 removed by TEV (pMCSG7); chain copies: 2; label: 5'-fluorescein
pKd: −log10 of the molar value.
assay-metric: pKd

                                     binder  numeric_result
0  mtrCDE 21mer (dsDNA) DNA 1: TATCCGTGCAATCGTGTATGT DNA 2: ACATACACGATTGCACGGATA            6.42
1  rpoH 27mer (dsDNA) DNA 1: TACATACGTGGTTGTATGTAAACGGCC DNA 2: GGCCGTTTACATACAACCACGTATGTA            7.28
